# measurement.target: hAChE (Homo sapiens)
# Sequence (P22303 32-614): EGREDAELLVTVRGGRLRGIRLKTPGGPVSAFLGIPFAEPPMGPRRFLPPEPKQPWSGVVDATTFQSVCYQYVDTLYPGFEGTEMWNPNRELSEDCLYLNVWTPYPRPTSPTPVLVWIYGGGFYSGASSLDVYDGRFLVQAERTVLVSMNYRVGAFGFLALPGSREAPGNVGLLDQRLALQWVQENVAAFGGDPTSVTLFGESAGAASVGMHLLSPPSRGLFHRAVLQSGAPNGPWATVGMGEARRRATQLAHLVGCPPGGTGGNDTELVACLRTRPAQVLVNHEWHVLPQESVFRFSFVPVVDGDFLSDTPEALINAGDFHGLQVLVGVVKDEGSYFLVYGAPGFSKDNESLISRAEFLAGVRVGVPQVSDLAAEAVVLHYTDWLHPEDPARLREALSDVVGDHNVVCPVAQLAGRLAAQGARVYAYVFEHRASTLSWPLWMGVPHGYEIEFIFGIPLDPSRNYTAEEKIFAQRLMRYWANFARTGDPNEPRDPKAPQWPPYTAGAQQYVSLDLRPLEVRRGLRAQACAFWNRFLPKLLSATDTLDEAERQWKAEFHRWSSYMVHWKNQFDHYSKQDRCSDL
# protocol.text: biochemical
# Experimental: 50 μL of hAChE (0.02 unit/mL) or hBChE (0.02 unit/mL) were incubated with 10 μL of the compound in 96-well plates at 37°C for 6 min. Subsequently, 30 μL of a substrate solution containing acetylthiocholine iodide (ATCI) or butyrylthiocholine iodide (BTCI) at a concentration of 0.01 M was added, and the mixture was further incubated at 37°C for an additional duration of 12 min.
Listed next: entries and their corresponding S.I. Selectivity index IC50(hBuChE)/IC50(hAChE).
# answer = number (no unit)

Reference set (2 entries):
The molecule listed as CCn1c2cc(OCCCCCCCCOc3ccc4c5ccnc(C)c5n(CC)c4c3)ccc2c2ccnc(C)c21 [Compound 8b] shows S.I. Selectivity index IC50(hBuChE)/IC50(hAChE) equal to 2.7

The molecule listed as Cc1nccc2c3ccc(OCCCCCCOc4ccc5c6ccnc(C)c6n(C)c5c4)cc3n(C)c12 [Compound 6a] shows S.I. Selectivity index IC50(hBuChE)/IC50(hAChE) equal to 0.7

Turning now to a further record.
The molecule listed as CCn1c2cc(OCCCCCCOc3ccc4c5ccnc(C)c5n(CC)c4c3)ccc2c2ccnc(C)c21 [Compound 6b] shows S.I. Selectivity index IC50(hBuChE)/IC50(hAChE) equal to 0.1

This collection of values is drawn from paper PMC11813896.
